Consider the following molecules and their measured pIC50 readings.
# System: KDM5A/B
# Test details: In vitro cell-based assay: immuno-blot quantification of tri-methyl H3K4 in ZR-75-1 breast cancer cells
# Assay context: 72 hours, tri-methyl H3K4 level relative to GAPDH, percent of DMSO, read-out: Cellular IC50
pIC50: −log10 of the molar value.

A selection of reference data follows.
INSERT INTO results (molecule, measurement_label, result) VALUES
  ('Cn1cnc(-c2nccc3c(O)nc(Oc4ccc(Cl)c(Cl)c4)nc23)c1 [Example 113]', 'pIC50', '6.00 to 7.00'),
  ('O=S(=O)(c1ccccc1)N1CC[C@@H](n2cc(Oc3nc(O)c4ccncc4n3)cn2)C1 [Example 128]', 'pIC50', '5.00 to 6.00'),
  ('CCCn1cc(Oc2nc(O)c3ccncc3n2)cn1 [Example 54]', 'pIC50', '5.00 to 6.00'),
  ('Cn1cnc(-c2nccc3c(O)nc(OCCO)nc23)c1 [Example 75]', 'pIC50', '< 5.00'),
  ('CCCOc1nc(O)c2ccncc2n1 [Example 7]', 'pIC50', '< 5.00');

Input CC(=O)Nc1ccc(Oc2nc(O)c3ccncc3n2)cc1 [Example 35] , output reported pIC50.
5.00 to 6.00

Input N#CCC(=O)N1CC[C@@H](n2cc(Oc3nc(O)c4ccncc4n3)cn2)C1 [Example 130] , output reported pIC50.
< 5.00

Input O=S(=O)(C1CC1)N1CC[C@@H](n2cc(Oc3nc(O)c4ccncc4n3)cn2)C1 [Example 127] , output reported pIC50.
5.00 to 6.00

Input O=C(C1CC1)N1CCC[C@@H](n2cc(Oc3nc(O)c4ccncc4n3)cn2)C1 [Example 156] , output reported pIC50.
< 5.00

Input Oc1nc(OCc2ccccc2)nc2cnccc12 [Example 4] , output reported pIC50.
5.00 to 6.00

Input C[C@@H](c1ccccc1F)n1cc(Oc2nc(O)c3ccncc3n2)cn1 [Example 120] , output reported pIC50.
5.00 to 6.00

* * *

# Target entity: Jarid1A (Homo sapiens, UniProt P29375)
# Sequence (P29375 1-1090): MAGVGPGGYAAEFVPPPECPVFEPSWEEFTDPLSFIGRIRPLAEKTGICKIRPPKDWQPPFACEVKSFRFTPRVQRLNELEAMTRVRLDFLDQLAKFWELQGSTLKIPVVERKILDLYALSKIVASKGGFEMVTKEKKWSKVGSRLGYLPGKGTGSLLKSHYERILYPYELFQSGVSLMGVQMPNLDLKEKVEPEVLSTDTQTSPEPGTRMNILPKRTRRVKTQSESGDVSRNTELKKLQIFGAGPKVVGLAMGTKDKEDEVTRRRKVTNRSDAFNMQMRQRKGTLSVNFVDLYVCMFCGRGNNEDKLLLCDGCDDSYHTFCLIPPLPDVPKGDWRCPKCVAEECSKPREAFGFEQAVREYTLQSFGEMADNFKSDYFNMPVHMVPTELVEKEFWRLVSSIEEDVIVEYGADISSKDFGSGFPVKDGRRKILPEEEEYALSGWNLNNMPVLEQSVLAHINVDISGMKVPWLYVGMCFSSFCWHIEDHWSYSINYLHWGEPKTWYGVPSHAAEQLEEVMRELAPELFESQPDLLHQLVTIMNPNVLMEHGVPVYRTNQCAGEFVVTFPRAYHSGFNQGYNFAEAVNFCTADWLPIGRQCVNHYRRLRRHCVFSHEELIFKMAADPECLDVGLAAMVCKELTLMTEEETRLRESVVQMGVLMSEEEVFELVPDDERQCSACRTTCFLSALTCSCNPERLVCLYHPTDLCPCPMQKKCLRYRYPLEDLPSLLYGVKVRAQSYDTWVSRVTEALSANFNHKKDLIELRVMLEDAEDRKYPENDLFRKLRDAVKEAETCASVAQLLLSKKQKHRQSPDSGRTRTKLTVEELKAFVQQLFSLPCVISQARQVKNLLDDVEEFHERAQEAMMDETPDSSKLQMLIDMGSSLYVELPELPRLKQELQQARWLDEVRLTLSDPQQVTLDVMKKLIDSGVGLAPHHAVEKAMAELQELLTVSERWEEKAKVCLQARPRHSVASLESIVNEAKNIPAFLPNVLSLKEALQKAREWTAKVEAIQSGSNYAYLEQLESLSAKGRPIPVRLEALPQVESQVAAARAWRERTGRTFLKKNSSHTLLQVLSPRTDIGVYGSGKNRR
Measurement label: IC50

Input Oc1nc(OCc2cccc(-c3ccccc3)c2)nc2cnccc12 , output reported IC50.
1000 to 10000 nM

Input COc1ccc(Oc2nc(O)c3ccncc3n2)cc1OC , output reported IC50.
≤ 100 nM

Input Oc1nc(Oc2cnn(CCN3CCOCC3)c2)nc2cnccc12 , output reported IC50.
≤ 100 nM

Input Oc1nc(Oc2cnn([C@H]3CCCNC3)c2)nc2cnccc12 , output reported IC50.
≤ 100 nM

Input CCCOc1nc(O)c2ccncc2n1 , output reported IC50.
≤ 100 nM

Input Oc1nc(OCC2CCc3ccccc3C2)nc2cnccc12 (stereo not shown) , output reported IC50.
100 to 1000 nM

Input Oc1nc(Oc2cnn([C@@H]3CCCN(Cc4ccccc4)C3)c2)nc2cnccc12 , output reported IC50.
≤ 100 nM

Input Oc1nc(OCC2CCOC2)nc2cnccc12 (stereo not shown) , output reported IC50.
100 to 1000 nM

Input O=C(CO)N1CC[C@H](n2cc(Oc3nc(O)c4ccncc4n3)cn2)C1 , output reported IC50.
≤ 100 nM

Input CCCc1cccc(Oc2nc(O)c3ccncc3n2)c1 , output reported IC50.
≤ 100 nM

Input Oc1nc(Oc2cnn(Cc3ccccc3Cl)c2)nc2cnccc12 , output reported IC50.
≤ 100 nM

Input Oc1nc(Oc2cccc(Cl)c2)nc2cnccc12 , output reported IC50.
≤ 100 nM

Input CC(Cc1ccccc1)Oc1nc(O)c2ccncc2n1 (stereo not shown) , output reported IC50.
1000 to 10000 nM

Input CC(=O)N1CC[C@H](n2cc(Oc3nc(O)c4ccncc4n3)cn2)C1 , output reported IC50.
≤ 100 nM

Input COc1c(F)cc(Oc2nc(O)c3ccncc3n2)cc1F , output reported IC50.
≤ 100 nM

Input Oc1nc(Oc2cnn([C@H]3CCN(c4ccccc4)C3)c2)nc2cnccc12 , output reported IC50.
≤ 100 nM

Input COc1nc(O)c2ccnc(-c3cn(C)cn3)c2n1 , output reported IC50.
≤ 100 nM

Input Oc1nc(OCC2CCc3ccccc32)nc2cnccc12 (stereo not shown) , output reported IC50.
100 to 1000 nM

Input COc1nc(O)c2ccncc2n1 [Example 8, 2-methoxypyrido[3,4-d]pyrimidin-4-ol] , output reported IC50.
≤ 100 nM

Input Oc1nc(OCc2ccccc2-c2ccccc2)nc2cnccc12 , output reported IC50.
1000 to 10000 nM

Input Oc1nc(OCc2ccccc2F)nc2cnccc12 , output reported IC50.
1000 to 10000 nM

Input OCCOc1nc(O)c2ccncc2n1 , output reported IC50.
≤ 100 nM

Input CN(C)CCOc1nc(O)c2ccnc(-c3cn(C)cn3)c2n1 , output reported IC50.
100 to 1000 nM

Input Cn1cnc(-c2nccc3c(O)nc(Oc4ccc(F)c(F)c4)nc23)c1 , output reported IC50.
≤ 100 nM

Input CC(C)n1cc(Oc2nc3cnccc3c(=O)[nH]2)cn1 , output reported IC50.
≤ 100 nM
